Reference for the values: patent US9309242B2

target: Ba/F3-FGFR3-transfected cells (Homo sapiens); construct: BAF3-FGFR3 (MIN IL3) pIC50; other: minus IL3; assay: Ba/F3-FGFR3 (minus IL3) cellular proliferation assay, Alamar Blue; type: cell-based
Sequence (P22607 whole entry, change not shown): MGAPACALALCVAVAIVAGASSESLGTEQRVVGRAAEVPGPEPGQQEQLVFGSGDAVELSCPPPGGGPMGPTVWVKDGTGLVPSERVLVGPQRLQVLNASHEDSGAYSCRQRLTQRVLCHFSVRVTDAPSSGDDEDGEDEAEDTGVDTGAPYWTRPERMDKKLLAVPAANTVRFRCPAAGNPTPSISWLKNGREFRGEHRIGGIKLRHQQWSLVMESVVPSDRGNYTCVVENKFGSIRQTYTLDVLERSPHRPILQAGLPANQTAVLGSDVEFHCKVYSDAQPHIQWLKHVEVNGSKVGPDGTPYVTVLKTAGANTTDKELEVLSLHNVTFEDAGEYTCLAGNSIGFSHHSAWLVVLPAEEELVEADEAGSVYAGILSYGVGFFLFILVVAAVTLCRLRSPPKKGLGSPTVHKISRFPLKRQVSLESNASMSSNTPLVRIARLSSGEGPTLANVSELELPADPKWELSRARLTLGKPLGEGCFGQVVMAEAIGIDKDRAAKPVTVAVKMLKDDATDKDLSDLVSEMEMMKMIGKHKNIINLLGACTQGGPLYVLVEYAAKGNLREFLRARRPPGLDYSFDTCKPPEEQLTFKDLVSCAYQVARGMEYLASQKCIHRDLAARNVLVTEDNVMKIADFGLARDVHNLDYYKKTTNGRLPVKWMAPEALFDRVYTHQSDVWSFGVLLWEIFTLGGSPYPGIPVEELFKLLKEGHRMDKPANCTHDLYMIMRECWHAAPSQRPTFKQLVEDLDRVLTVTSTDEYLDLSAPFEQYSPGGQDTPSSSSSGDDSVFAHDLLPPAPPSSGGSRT
Recorded measurements of BAF3-FGFR3 (MIN IL3) pIC50, one per entry
result_type: BAF3-FGFR3 (MIN IL3) pIC50

# molecule, reported_result
rows = [
    ("COc1cc(OC)c(F)c(N(Cc2cc(C)on2)c2ccc3ncc(-c4cnn(C)c4)nc3n2)c1", 7.36),
    ("COc1cc(OC)cc(N(CC(C)(C)O)c2ccc3ncc(-c4cnn(C)c4)nc3n2)c1", 6.41),
    ("COc1cc(OC)c(F)c(N(CC2CCOC2)c2ccc3ncc(-c4cnn(C)c4)nc3n2)c1 (single isomer, unassigned) [Compound 170]", 6.78),
    ("COc1cc(OC)cc(N(CCO)c2ccc3ncc(-c4cnn(C)c4)nc3n2)c1", 7.3),
    ("COc1cc(OC)c(F)c(N(CC2CCC(=O)N2C)c2ccc3ncc(-c4cnn(C)c4)nc3n2)c1 (stereo not drawn) [Compound 161]", 6.08),
    ("COc1cc(OC)c(F)c(N(CC2CCCCO2)c2ccc3ncc(-c4cnn(C)c4)nc3n2)c1 (stereo not drawn)", 7.38),
    ("COc1cc(OC)c(F)c(N(Cc2ncc[nH]2)c2ccc3ncc(N4CCOCC4)nc3n2)c1F", 8.18),
    ("COc1cc(OC)c(F)c(N(Cc2nc(CO)c[nH]2)c2ccc3ncc(-c4cnn(C)c4)nc3n2)c1", 7.81),
]

---

target: FGFR1 (h) (Homo sapiens, UniProt P11362); assay: FGFR1 (enzymatic assay), TR-FRET; format: biochemical; conditions: average values if tested multiple times, read-out: FGFR 1 pIC50 (converted)
Sequence (P11362 22-822): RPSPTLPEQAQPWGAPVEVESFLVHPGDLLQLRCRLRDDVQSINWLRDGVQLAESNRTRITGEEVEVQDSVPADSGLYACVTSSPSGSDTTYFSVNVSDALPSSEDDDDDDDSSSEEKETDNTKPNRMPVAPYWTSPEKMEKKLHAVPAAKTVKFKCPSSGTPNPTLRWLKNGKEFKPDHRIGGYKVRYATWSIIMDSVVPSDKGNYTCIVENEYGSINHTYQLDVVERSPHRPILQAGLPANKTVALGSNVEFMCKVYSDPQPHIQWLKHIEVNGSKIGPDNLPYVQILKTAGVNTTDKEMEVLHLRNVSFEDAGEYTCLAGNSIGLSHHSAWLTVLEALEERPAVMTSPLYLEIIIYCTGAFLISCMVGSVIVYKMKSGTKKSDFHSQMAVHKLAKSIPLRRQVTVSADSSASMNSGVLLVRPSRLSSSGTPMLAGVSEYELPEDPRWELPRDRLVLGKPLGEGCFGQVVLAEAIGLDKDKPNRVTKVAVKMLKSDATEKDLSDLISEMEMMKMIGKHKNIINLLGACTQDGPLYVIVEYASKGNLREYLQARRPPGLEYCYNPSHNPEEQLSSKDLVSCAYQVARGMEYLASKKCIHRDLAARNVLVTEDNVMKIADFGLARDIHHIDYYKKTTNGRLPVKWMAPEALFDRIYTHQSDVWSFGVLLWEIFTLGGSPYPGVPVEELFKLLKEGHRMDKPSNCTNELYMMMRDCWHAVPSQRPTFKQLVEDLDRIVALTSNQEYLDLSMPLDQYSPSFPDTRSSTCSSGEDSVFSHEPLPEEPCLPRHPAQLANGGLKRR
result_type: IC50 (nM)

# compound, unit_name, reported_result
rows = [
    ("COc1cc(OC)cc(N(CC(O)C(F)(F)F)c2ccc3ncc(-c4cnn(C)c4)nc3n2)c1 (single isomer, unassigned) [Compound 34]", "nM", 3.55),
    ("COCC(O)Cn1c(=Nc2c(F)c(OC)cc(OC)c2F)ccc2ncc(-c3cnn(C)c3)nc21 (stereo not shown)", "nM", 0.589),
    ("COc1cc(/N=c2\\ccc3ncc(-c4cnn(C)c4)nc3n2CC2CCC(=O)N2)c(F)c(OC)c1 (stereo not shown) [Compound 53]", "nM", 1.2),
    ("COc1cc(O)cc(N(Cc2ncc[nH]2)c2ccc3ncc(-c4cnn(C)c4)nc3n2)c1", "nM", 0.339),
]

---

biological target: Ba/F3-KDR-transfected cells (Homo sapiens); construct: BAF3-KDR (MIN IL3) pIC50; other: minus IL3; experiment: Ba/F3-KDR (minus IL3) cellular proliferation assay, Alamar Blue; type: cell-based
Sequence (P35968 whole entry, change not shown): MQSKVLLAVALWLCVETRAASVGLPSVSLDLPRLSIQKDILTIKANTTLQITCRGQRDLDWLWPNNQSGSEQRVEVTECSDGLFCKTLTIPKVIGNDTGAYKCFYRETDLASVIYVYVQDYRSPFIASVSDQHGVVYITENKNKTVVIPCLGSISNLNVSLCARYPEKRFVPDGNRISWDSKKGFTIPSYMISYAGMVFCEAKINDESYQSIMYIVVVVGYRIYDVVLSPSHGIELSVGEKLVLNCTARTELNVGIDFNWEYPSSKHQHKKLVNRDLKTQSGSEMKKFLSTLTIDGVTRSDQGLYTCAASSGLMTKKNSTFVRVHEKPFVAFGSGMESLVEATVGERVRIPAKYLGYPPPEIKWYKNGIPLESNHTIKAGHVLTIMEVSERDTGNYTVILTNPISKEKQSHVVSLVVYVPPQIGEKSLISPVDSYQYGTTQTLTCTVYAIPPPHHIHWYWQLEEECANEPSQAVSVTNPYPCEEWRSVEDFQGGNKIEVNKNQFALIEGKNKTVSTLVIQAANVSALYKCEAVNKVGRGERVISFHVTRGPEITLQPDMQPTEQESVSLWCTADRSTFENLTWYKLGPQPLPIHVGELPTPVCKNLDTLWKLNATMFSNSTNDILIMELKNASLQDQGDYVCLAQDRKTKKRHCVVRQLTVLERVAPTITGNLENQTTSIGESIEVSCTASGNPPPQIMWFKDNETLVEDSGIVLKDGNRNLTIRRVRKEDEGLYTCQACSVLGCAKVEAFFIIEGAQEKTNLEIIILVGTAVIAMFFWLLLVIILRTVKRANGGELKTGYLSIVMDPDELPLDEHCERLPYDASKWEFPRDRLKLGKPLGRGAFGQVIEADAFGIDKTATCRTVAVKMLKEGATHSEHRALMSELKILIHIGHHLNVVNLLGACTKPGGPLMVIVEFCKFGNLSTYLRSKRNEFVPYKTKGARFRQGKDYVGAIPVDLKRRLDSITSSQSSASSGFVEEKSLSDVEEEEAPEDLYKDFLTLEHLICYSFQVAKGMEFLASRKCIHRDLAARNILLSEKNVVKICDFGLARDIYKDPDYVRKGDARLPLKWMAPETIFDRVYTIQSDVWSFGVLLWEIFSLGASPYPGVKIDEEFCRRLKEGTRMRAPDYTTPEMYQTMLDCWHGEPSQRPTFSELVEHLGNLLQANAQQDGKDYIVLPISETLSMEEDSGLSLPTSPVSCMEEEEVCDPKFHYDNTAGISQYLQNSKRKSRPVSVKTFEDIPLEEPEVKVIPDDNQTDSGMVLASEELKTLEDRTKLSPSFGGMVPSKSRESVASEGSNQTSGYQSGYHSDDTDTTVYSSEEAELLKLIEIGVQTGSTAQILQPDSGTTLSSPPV
Counter-ions that a name gives are not always drawn.
result_type: BAF3-KDR (MIN IL3) pIC50

# molecule, measurement_target, comparison_symbol, reported_result
rows = [
    ("COc1cc(OC)cc(N(CCO)c2ccc3ncc(-c4cnn(C)c4)nc3n2)c1 [Compound 21]", "Ba/F3-KDR-transfected cells (Homo sapiens)", "=", 5.6),
    ("COc1cc(OC)c(F)c(N(Cc2nncn2C)c2ccc3ncc(-c4cnn(C)c4)nc3n2)c1 [Compound 132]", "Ba/F3-KDR-transfected cells (Homo sapiens)", "=", 5.38),
    ("COc1cc(OC)c(F)c(N(Cc2ncc[nH]2)c2ccc3ncc(N4CCOCC4)nc3n2)c1F [Compound 215]", "Ba/F3-KDR-transfected cells (Homo sapiens)", "=", 5.91),
    ("COc1ccc(Cl)c(/N=c2\\ccc3ncc(-c4cnn(C)c4)nc3n2CC2CCC(=O)N2)c1Cl (single isomer, unassigned) [Compound 89]", "Ba/F3-KDR-transfected cells (Homo sapiens)", "<", 5),
    ("COc1cc(OC)c(F)c(N(Cc2nc3ccccc3[nH]2)c2ccc3ncc(-c4cnn(C)c4)nc3n2)c1 [Compound 80]", "Ba/F3-KDR-transfected cells (Homo sapiens)", "=", 5.79),
    ("CNCCn1/c(=N/c2c(F)c(OC)cc(OC)c2F)ccc2ncc(-c3cnn(C)c3)nc21 [Compound 4]", "Ba/F3-KDR-transfected cells (Homo sapiens)", "=", 5.4),
    ("COc1cc(/N=c2\\ccc3ncc(-c4cnn(C)c4)nc3n2CC2CCC(=O)N2CCO)c(F)c(OC)c1 (centres unmarked) [Compound 247]", "Ba/F3-KDR-transfected cells (Homo sapiens)", "=", 5.63),
    ("COc1cc(OC)cc(N(Cc2ncc[nH]2)c2ccc3ncc(-c4cnn(C)c4)nc3n2)c1 [24-phosphate salt]", "Ba/F3-KDR-transfected cells (Homo sapiens)", "=", 6.05),
    ("CCn1cc(-c2cnc3ccc(N(Cc4ncc[nH]4)c4cc(OC)cc(OC)c4F)nc3n2)cn1 [Compound 223]", "Ba/F3-KDR-transfected cells (Homo sapiens)", "=", 6.81),
    ("COc1cc(OC)c(F)c(N(Cc2ncccn2)c2ccc3ncc(-c4cnn(C)c4)nc3n2)c1F [Compound 11]", "Ba/F3-KDR-transfected cells (Homo sapiens)", "=", 6.3),
    ("COc1cc(/N=c2\\ccc3ncc(-c4cnn(C)c4)nc3n2Cc2c(C)noc2C)c(F)c(OC)c1 [Compound 179]", "Ba/F3-KDR-transfected cells (Homo sapiens)", "<", 5.52),
    ("COc1cc(/N=c2\\ccc3ncc(-c4cnn(C)c4)nc3n2CCNC(C)=O)c(F)c(OC)c1 [Compound 243]", "Ba/F3-KDR-transfected cells (Homo sapiens)", "=", 6.00),
    ("COc1cc(OC)c(F)c(N(CC2CCC(=O)N2CCO)c2ccc3ncc(-c4cnn(C)c4)nc3n2)c1 (centres unmarked) [Compound 194]", "Ba/F3-KDR-transfected cells (Homo sapiens)", "=", 5.18),
    ("COc1cc(OC)c(F)c(N(CC(=O)c2cnn(C)c2)c2ccc3ncc(-c4cnn(C)c4)nc3n2)c1 [Compound 225]", "Ba/F3-KDR-transfected cells (Homo sapiens)", "=", 5.17),
    ("CNC(=O)c1cc(F)cc(N(Cc2ncc[nH]2)c2ccc3ncc(-c4cnn(C)c4)nc3n2)c1 [Compound 261]", "Ba/F3-KDR-transfected cells (Homo sapiens)", "=", 6.01),
    ("COc1cc(OC)c(F)c(N(Cc2ncc[nH]2)c2ccc3ncc(N4CCOCC4)nc3n2)c1 [Compound 291]", "Ba/F3-KDR-transfected cells (Homo sapiens)", "=", 5.68),
    ("COc1cc(OC)c(F)c(N(CCN(C2COC2)C2COC2)c2ccc3ncc(-c4cnn(C)c4)nc3n2)c1F (single isomer, unassigned) [Compound 163]", "Ba/F3-KDR-transfected cells (Homo sapiens)", "=", 6.21),
    ("COc1cc(/N=c2\\ccc3ncc(-c4cnn(C)c4)nc3n2CC2CC(O)C(=O)N2)c(F)c(OC)c1 (centres unmarked) [Compound 270]", "Ba/F3-KDR-transfected cells (Homo sapiens)", "=", 5.56),
    ("COc1cc(OC)c(F)c(N(CCNC2COC2)c2ccc3ncc(-c4cnn(C)c4)nc3n2)c1 [Compound 221]", "Ba/F3-KDR-transfected cells (Homo sapiens)", "=", 6.11),
    ("COc1cc(OC)c(F)c(N(CC(=O)NC(C)C)c2ccc3ncc(-c4cnn(C)c4)nc3n2)c1 [Compound 249]", "Ba/F3-KDR-transfected cells (Homo sapiens)", "=", 5.09),
    ("COc1cc(OC)c(F)c(N(CC(O)COC(C)C)c2ccc3ncc(-c4cnn(C)c4)nc3n2)c1F (centres unmarked) [Compound 63]", "Ba/F3-KDR-transfected cells (Homo sapiens)", "=", 6.58),
    ("COc1cc(OC)c(F)c(N(CC2CCC(=O)N2)c2ccc3ncc(-c4cnn(C5CNC5)c4)nc3n2)c1 (centres unmarked) [Compound 299]", "Ba/F3-KDR-transfected cells (Homo sapiens)", "<", 5),
    ("COc1cc(OC)c(F)c(/N=c2\\ccc3ncc(-c4cnn(C)c4)nc3n2CC2CCC(=O)N2)c1F (centres unmarked) [Compound 193]", "Ba/F3-KDR-transfected cells (Homo sapiens)", "=", 6.28),
    ("COc1cc(OC)cc(N(Cc2ncc[nH]2)c2ccc3ncc(-c4cnn(C)c4)nc3n2)c1 (racemic) [24-DL-tartrate salt]", "Ba/F3-KDR-transfected cells (Homo sapiens)", "=", 6.30),
    ("CCn1/c(=N/c2c(F)c(OC)cc(OC)c2F)ccc2ncc(-c3cnn(C)c3)nc21 [Compound 257]", "Ba/F3-KDR-transfected cells (Homo sapiens)", "=", 6.80),
    ("COc1cc(/N=c2\\ccc3ncc(-c4cnn(C)c4)nc3n2Cc2cnn(C)c2)c(F)c(OC)c1 [Compound 196]", "Ba/F3-KDR-transfected cells (Homo sapiens)", "=", 7.41),
    ("COc1cc(OC)c(F)c(N(CCCN2CCCC2=O)c2ccc3ncc(-c4cnn(C)c4)nc3n2)c1 [Compound 120]", "Ba/F3-KDR-transfected cells (Homo sapiens)", "=", 6.10),
    ("COc1cc(OC)c(F)c(N(Cc2ncc[nH]2)c2ccc3ncc(-c4cnn(C(CO)CCl)c4)nc3n2)c1 (centres unmarked) [Compound 209]", "Ba/F3-KDR-transfected cells (Homo sapiens)", "=", 6.57),
    ("COc1cc(/N=c2\\ccc3ncc(-c4cnn(CC(C)(C)O)c4)nc3n2CC(C)(C)O)c(F)c(OC)c1 (single isomer, unassigned) [Compound 207]", "Ba/F3-KDR-transfected cells (Homo sapiens)", "=", 6.11),
]
